tested on: rodent lifetime carcinogenesis bioassay, tumor incidence TD50; test: carcinogenic potency in animals, long-term in vivo studies, CPDB compilation (AID 1745844); details: rat; strain Fischer 344; males; in drinking water; site: skin; lesion: squamous-cell carcinoma; dosed 97 weeks; study length 97 weeks
outcome_measure: TD50 (mg/kg/day)
# number only, unit mg/kg/day dropped from output

TD50 for "COc1cc(-c2ccc(N=Nc3c(S(=O)(=O)O)cc4cc(S(=O)(=O)O)cc(N)c4c3O)c(OC)c2)ccc1N=Nc1c(S(=O)(=O)O)cc2cc(S(=O)(=O)O)cc(N)c2c1O" ?
89.7

###

test system: rodent lifetime carcinogenesis bioassay, tumor incidence TD50; assay: carcinogenic potency in animals, long-term in vivo studies, CPDB compilation (AID 1745844); conditions: mouse; strain ICR/Jcl; males; in feed; site: forestomach; lesion: several types; types named in the paper; dosed 62 weeks; study length 62 weeks
outcome_measure: TD50

// fetch rodent lifetime carcinogenesis bioassay, tumor incidence TD50 TD50 for "NC(=O)C(=Cc1ccc([N+](=O)[O-])o1)c1ccco1"
90.3 mg/kg/day

###

system: rodent lifetime carcinogenesis bioassay, tumor incidence TD50; assay: carcinogenic potency in animals, long-term in vivo studies, CPDB compilation (AID 1745844); conditions: mouse; strain B6C3F1; females; inhaled; site: lung; lesion: alveolar/bronchiolar adenoma; dosed 104 weeks; study length 104 weeks
outcome_measure: TD50

test_smiles | TD50
C=CC(=C)Cl | 8.65 mg/kg/day

TD50 for "ClCCl" ?
5020 mg/kg/day

###

test system: rodent lifetime carcinogenesis bioassay, tumor incidence TD50; assay: carcinogenic potency in animals, long-term in vivo studies, CPDB compilation (AID 1745844); conditions: mouse; strain B6C3F1; males; in feed; site: any site (literature study); lesion: several types; types named in the paper; dosed 80 weeks; study length 89 weeks
outcome_measure: TD50 (mg/kg/day)
# number only, unit mg/kg/day dropped from output

// fetch rodent lifetime carcinogenesis bioassay, tumor incidence TD50 TD50 for O=C1C2(Cl)C3(Cl)C4(Cl)C(Cl)(Cl)C5(Cl)C3(Cl)C1(Cl)C5(Cl)C24Cl (stereo unspecified)
0.705

###

test system: rodent lifetime carcinogenesis bioassay, tumor incidence TD50; assay: carcinogenic potency in animals, long-term in vivo studies, CPDB compilation (AID 1745844); conditions: mouse; strain B6C3F1; females; inhaled; site: mammary gland; lesion: carcinoma; dosed 104 weeks; study length 104 weeks
outcome_measure: TD50

TD50 for "C=CC(=C)Cl" ?
75.3 mg/kg/day

###

test system: rodent lifetime carcinogenesis bioassay, tumor incidence TD50; test: carcinogenic potency in animals, long-term in vivo studies, CPDB compilation (AID 1745844); conditions: rat; strain MRC; females; by gavage; site: liver; lesion: several types; types named in the paper; dosed 73 weeks; study length 77 weeks
outcome_measure: TD50

TD50 for "CC(=O)CN(CC(C)=O)N=O" ?
0.283 mg/kg/day

###

system: rodent lifetime carcinogenesis bioassay, tumor incidence TD50; test: carcinogenic potency in animals, long-term in vivo studies, CPDB compilation (AID 1745844); details: monkey; strain Rhesus [Macaca mulatta]; both sexes; in feed; site: liver; lesion: hemangiosarcoma; dosed 258 weeks; study length 1281 weeks
outcome_measure: TD50

TD50 for "CCOC(N)=O" ?
143 mg/kg/day

###

system: rodent lifetime carcinogenesis bioassay, tumor incidence TD50; test: carcinogenic potency in animals, long-term in vivo studies, CPDB compilation (AID 1745844); settings: mouse; strain C57BL/6JfC3Hf/Nctr x BALB/cStCrlfC3Hf/Nctr inter se; males; in drinking water; site: liver; lesion: hepatocellular adenoma; dosed 60 weeks; study length 60 weeks
outcome_measure: TD50

TD50 for "Nc1ccc(-c2ccc(N)cc2)cc1" ?
67.7 mg/kg/day

###

tested on: rodent lifetime carcinogenesis bioassay, tumor incidence TD50; assay: carcinogenic potency in animals, long-term in vivo studies, CPDB compilation (AID 1745844); details: mouse; strain Swiss; females; inhaled; site: all sites; lesion: hemangiosarcoma; dosed 26 weeks; study length 104 weeks
outcome_measure: TD50

TD50 for "C=CCl" ?
12.5 mg/kg/day

###

test system: rodent lifetime carcinogenesis bioassay, tumor incidence TD50; assay: carcinogenic potency in animals, long-term in vivo studies, CPDB compilation (AID 1745844); details: mouse; strain CD-1 HaM/ICR; males; in feed; site: lung; lesion: several types; types named in the paper; dosed 68 weeks; study length 94 weeks
Activity calls are given as the source filed them. The rule behind the calls is not given here.
outcome_measure: TD50

TD50 for "Cc1ccc(C)c(N)c1" ?
765 mg/kg/day (inactive)

###

system: rodent lifetime carcinogenesis bioassay, tumor incidence TD50; assay: carcinogenic potency in animals, long-term in vivo studies, CPDB compilation (AID 1745844); conditions: rat; strain Crj:Wistar; males; in feed; site: liver; lesion: hyperplastic nodule; dosed 104 weeks; study length 104 weeks
outcome_measure: TD50 (mg/kg/day)
# number only, unit mg/kg/day dropped from output

TD50 for "Oc1ccccc1O" ?
3180

###

system: rodent lifetime carcinogenesis bioassay, tumor incidence TD50; experiment: carcinogenic potency in animals, long-term in vivo studies, CPDB compilation (AID 1745844); conditions: rat; strain F344/DuCrj; males; in drinking water; site: any site (literature study); lesion: several types; types named in the paper; dosed 99 weeks; study length 111 weeks
outcome_measure: TD50 (mg/kg/day)
# number only, unit mg/kg/day dropped from output

// fetch rodent lifetime carcinogenesis bioassay, tumor incidence TD50 TD50 for "CCN(N=O)C(N)=O"
0.025

###

tested on: rodent lifetime carcinogenesis bioassay, tumor incidence TD50; test: carcinogenic potency in animals, long-term in vivo studies, CPDB compilation (AID 1745844); details: rat; strain Fischer 344; females; inhaled; site: nasal cavity; lesion: squamous-cell papilloma; dosed 52 weeks; study length 130 weeks
outcome_measure: TD50

// fetch rodent lifetime carcinogenesis bioassay, tumor incidence TD50 TD50 for "NN"
8.72 mg/kg/day

###

test system: rodent lifetime carcinogenesis bioassay, tumor incidence TD50; test: carcinogenic potency in animals, long-term in vivo studies, CPDB compilation (AID 1745844); settings: mouse; strain B6C3F1; males; by gavage; site: liver; lesion: hepatocellular carcinoma; dosed 78 weeks; study length 91 weeks
outcome_measure: TD50

TD50 for "ClC(Cl)C(Cl)Cl" ?
45.4 mg/kg/day

###

test system: rodent lifetime carcinogenesis bioassay, tumor incidence TD50; test: carcinogenic potency in animals, long-term in vivo studies, CPDB compilation (AID 1745844); settings: hamster; strain Syrian Golden; males; in drinking water; site: liver; lesion: hepatocellular carcinoma; dosed 104 weeks; study length 104 weeks
outcome_measure: TD50

TD50 for "O=S(=O)(O)O" ?
181 mg/kg/day

###

system: rodent lifetime carcinogenesis bioassay, tumor incidence TD50; assay: carcinogenic potency in animals, long-term in vivo studies, CPDB compilation (AID 1745844); conditions: mouse; strain CFLP; females; in feed; site: liver; lesion: hepatocellular adenoma; dosed 92 weeks; study length 94 weeks
The source made the active and inactive calls. The rule behind the calls is not given here.
outcome_measure: TD50

// fetch rodent lifetime carcinogenesis bioassay, tumor incidence TD50 TD50 for "S=C([S-])NCCNC(=S)[S-].[Zn+2]"
1730 mg/kg/day (inactive)

###

test system: rodent lifetime carcinogenesis bioassay, tumor incidence TD50; experiment: carcinogenic potency in animals, long-term in vivo studies, CPDB compilation (AID 1745844); details: rat; strain Fischer 344; males; in drinking water; site: colon, ascending + colon + colon, descending + jejunum + liver + palate + pharynx + preputial gland + skin + tongue + Zymbal's gland; lesion: adenomatous polyp + adenocarcinoma + mucinous cystadenocarcinoma + hepatocellular carcinoma + neoplastic nodule + squamous-cell pa; dosed 97 weeks; study length 97 weeks
outcome_measure: TD50 (mg/kg/day)
# number only, unit mg/kg/day dropped from output

TD50 for "COc1cc(-c2ccc(N=Nc3c(S(=O)(=O)O)cc4cc(S(=O)(=O)O)cc(N)c4c3O)c(OC)c2)ccc1N=Nc1c(S(=O)(=O)O)cc2cc(S(=O)(=O)O)cc(N)c2c1O" ?
11.8

###

system: rodent lifetime carcinogenesis bioassay, tumor incidence TD50; assay: carcinogenic potency in animals, long-term in vivo studies, CPDB compilation (AID 1745844); settings: rat; strain Fischer 344; females; in feed; site: liver; lesion: hepatocellular adenoma + hepatocellular carcinoma + neoplastic nodule; dosed 104 weeks; study length 109 weeks
outcome_measure: TD50

// fetch rodent lifetime carcinogenesis bioassay, tumor incidence TD50 TD50 for "NCCCCCCCCCCC(=O)O"
44600 mg/kg/day

###

test system: rodent lifetime carcinogenesis bioassay, tumor incidence TD50; assay: carcinogenic potency in animals, long-term in vivo studies, CPDB compilation (AID 1745844); details: mouse; strain CDF1; males; in feed; site: lung; lesion: adenocarcinoma; dosed 84 weeks; study length 84 weeks
outcome_measure: TD50

TD50 for "Cc1cnc2ccc3c(nc(N)n3C)c2n1" ?
236 mg/kg/day

###

tested on: rodent lifetime carcinogenesis bioassay, tumor incidence TD50; assay: carcinogenic potency in animals, long-term in vivo studies, CPDB compilation (AID 1745844); settings: rat; strain Fischer 344; males; in drinking water; site: upper gastrointestinal tract; lesion: several types; types named in the paper; dosed 104 weeks; study length 127 weeks
outcome_measure: TD50

TD50 for "CN(CCc1ccccc1)N=O" ?
0.0136 mg/kg/day

Values were extracted from PubChem BioAssay AID1745844.
